Subject of test: Pantothenate synthetase (Mycobacterium tuberculosis (strain ATCC 25618 / H37Rv)) (UniProt P9WIL5)
Sequence (P9WIL5 whole entry, looked up): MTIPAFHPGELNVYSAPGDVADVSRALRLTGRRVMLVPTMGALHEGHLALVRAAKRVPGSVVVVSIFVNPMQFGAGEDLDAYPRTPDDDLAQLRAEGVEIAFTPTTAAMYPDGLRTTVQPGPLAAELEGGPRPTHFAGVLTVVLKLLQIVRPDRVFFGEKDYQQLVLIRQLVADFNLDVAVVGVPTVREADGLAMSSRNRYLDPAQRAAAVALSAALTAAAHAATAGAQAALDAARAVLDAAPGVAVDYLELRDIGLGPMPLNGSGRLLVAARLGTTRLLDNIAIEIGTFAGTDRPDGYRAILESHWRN
Assay overview: Coupled enzyme confirmation of inhibitors against recombinant Mtb PanC (AID 375);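 also: 0% = full reaction with vehicle and 100% = no enzyme background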
Study conditions: coupled enzyme assay; at 10 µM, active compounds read high
Active and inactive are the calls of the source. No rule for the calls is given here.
A collection of compounds and their measured inhibition

Consider the following illustrative entries.
Problem: # return recorded inhibition for input COc1ccc(CCNC(=O)C2CCCN(c3nn4c(=O)cc(C)nc4s3)C2)cc1OC (stereo unspecified)
Solution: 0% (inactive)

Problem: Tell me measured inhibition for COc1ccc(OC)c(C(C)NC=O)c1 (stereo unspecified) please.
Solution: 4% (inactive)

Problem: Given the compound CC(c1ccco1)N(C(=O)c1ccc(S(=O)(=O)N2CCCCC2)cc1)c1ccccn1 (stereo unspecified) , write its reported inhibition.
Solution: 2% (inactive)

Continuing:
Problem: Dear colleague, please send me the reported inhibition for Cc1onc(-c2c(Cl)cccc2Cl)c1C(N)=O when you can.
Solution: 0% (inactive)

Problem: For the compound Cc1ccc(OCC2Cn3c(nc4c3c(=O)n(C)c(=O)n4C)O2)cc1 (stereo unspecified) , give its reported inhibition.
Solution: 0% (inactive)

Problem: Specify inhibition for CCOc1cc(C2C(C(=O)OC(C)C)=C(C)N=C3SCCC(=O)N32)ccc1OC(C)=O (stereo unspecified) and stop.
Solution: 0% (inactive)

Problem: # return recorded inhibition for entry CC(Sc1nnnn1C)C(=O)Nc1ccc(Oc2ccccc2)cc1 (stereo unspecified)
Solution: 0% (inactive)

Problem: Could you please provide reported inhibition for CCOC(=O)c1cccc(NC(=O)CSc2nnc(C3CCCCC3)n2C)c1 ? Thanks!
Solution: 2% (inactive)

Problem: Please list inhibition recorded for the compound CN(CCCC(=O)Nc1ccncc1)S(=O)(=O)c1ccc(Cl)cc1
Solution: 3% (inactive)

Problem: Kindly indicate its recorded inhibition. Item: CC(=O)N1CC(=O)Nc2ccc(Cl)cc2C1c1ccc(F)cc1 (stereo unspecified)
Solution: 0% (inactive)

Problem: Provide inhibition value for the following compound: NC(N)=NC(=O)c1nc(Cl)c(N)nc1N
Solution: 0% (inactive)
